# assayed_target: Ba/F3-FGFR4-transfected cells (Homo sapiens)
# Sequence (P22455 whole entry, change not shown): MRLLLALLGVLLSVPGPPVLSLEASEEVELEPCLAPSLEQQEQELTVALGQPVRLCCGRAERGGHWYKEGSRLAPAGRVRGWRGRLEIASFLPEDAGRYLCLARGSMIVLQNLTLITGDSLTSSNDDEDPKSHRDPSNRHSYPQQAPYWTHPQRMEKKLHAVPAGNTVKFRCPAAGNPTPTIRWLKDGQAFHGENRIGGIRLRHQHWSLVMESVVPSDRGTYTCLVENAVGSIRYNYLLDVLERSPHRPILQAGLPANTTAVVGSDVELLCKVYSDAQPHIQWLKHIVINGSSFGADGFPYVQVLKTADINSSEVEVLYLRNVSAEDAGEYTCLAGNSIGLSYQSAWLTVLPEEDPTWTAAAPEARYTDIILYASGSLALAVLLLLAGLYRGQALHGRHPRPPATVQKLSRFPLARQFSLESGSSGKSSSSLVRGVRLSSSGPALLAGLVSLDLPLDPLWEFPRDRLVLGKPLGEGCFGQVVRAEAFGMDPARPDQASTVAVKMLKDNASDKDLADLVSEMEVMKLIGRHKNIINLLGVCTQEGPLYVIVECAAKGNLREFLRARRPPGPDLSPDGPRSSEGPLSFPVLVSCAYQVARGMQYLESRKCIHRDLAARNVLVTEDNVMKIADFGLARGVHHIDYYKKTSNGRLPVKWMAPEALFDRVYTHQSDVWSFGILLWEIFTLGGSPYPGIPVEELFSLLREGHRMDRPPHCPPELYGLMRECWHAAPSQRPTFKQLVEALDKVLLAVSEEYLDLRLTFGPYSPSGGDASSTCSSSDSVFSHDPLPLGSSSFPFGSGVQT
# test_details: Ba/F3-FGFR4 cellular proliferation assay, Alamar Blue
# Format: cell-based
Is BAF3-FGFR4 pIC50 at least 6? Then satisfied. If not, not satisfied.

Is the recorded value of BAF3-FGFR4 pIC50 equal to or greater than 6 for this compound? COc1cc(OC)cc(N(CCCO)c2ccc3ncc(-c4ccnc(C(=O)NCCCCN)c4)nc3c2)c1
not satisfied

Is BAF3-FGFR4 pIC50 for COc1cc(OC)cc(N(CCNC(C)C)c2ccc3ncc(C(=O)NCCN4CCOCC4)nc3c2)c1 at or above 6?
not satisfied

Does COc1cc(OC)cc(N(CC2CC2)c2ccc3ncc(C(=O)NCCN4CCOCC4)nc3c2)c1 have a reported BAF3-FGFR4 pIC50 of at least 6?
not satisfied

Record COc1cc(OC)cc(N(CCN)c2ccc3ncc(-c4ccn(C)c4)nc3c2)c1 ; criterion: BAF3-FGFR4 pIC50 no lower than 6. Met?
satisfied

Hi, just wondering whether COc1cc(OC)cc(N(CCCO)c2ccc3ncc(-c4ccnc(N)c4)nc3c2)c1 shows BAF3-FGFR4 pIC50 of 6 or higher.
satisfied

Please indicate if the recorded BAF3-FGFR4 pIC50 for COc1cc(OC)cc(N(CC2CC2)c2ccc3ncc(NC(=O)c4ccc(F)cc4)nc3c2)c1 meets or exceeds 6.
not satisfied

Hi team, for COc1cc(OC)cc(N(CCCNC(C)C)c2ccc3ncc(-c4ccnc(N)c4)nc3c2)c1 , is the recorded BAF3-FGFR4 pIC50 at or above 6?
satisfied

State whether the measured BAF3-FGFR4 pIC50 reaches 6, counting equality as reaching it, for COc1cc(OC)cc(N(CCNC(C)C)c2ccc3ncc(-c4cccnc4)nc3c2)c1
satisfied

Test whether the compound COc1cc(OC)cc(N(CC2CC2)c2ccc3ncc(-n4cnc(C)c4)nc3c2)c1 records BAF3-FGFR4 pIC50 of 6 or higher.
not satisfied

Decide: BAF3-FGFR4 pIC50 of COc1cc(OC)cc(N(CC2CC2)c2ccc3ncc(Nc4nccs4)nc3c2)c1 >= 6?
not satisfied

Please check the record COc1cc(OC)cc(N(CCCNCC(F)(F)F)c2ccc3ncc(-c4ccnc(F)c4)nc3c2)c1 and state if its BAF3-FGFR4 pIC50 is at or above 6.
not satisfied

API: above_or_equal(metric=BAF3-FGFR4 pIC50, cutoff=6) for item COc1cc(OC)cc(N(CCNC(C)C)c2ccc3ncc(-c4ccncc4)nc3c2)c1
satisfied

Identify whether the reported BAF3-FGFR4 pIC50 of the following compound is 6 or greater: COc1cc(OC)cc(N(CCO)c2ccc3ncc(-n4cnc(CO)c4)nc3c2)c1
not satisfied

API: above_or_equal(metric=BAF3-FGFR4 pIC50, cutoff=6) for item COc1cc(OC)cc(N(CCNC(C)C)c2ccc3ncc(-c4ccc(N5CCOCC5)nc4)nc3c2)c1
satisfied

Given the entry COc1cc(OC)cc(N(CCNC(C)C)c2ccc3ncc(-c4ccc(N5CCN(C)CC5)nc4)nc3c2)c1 , answer whether its BAF3-FGFR4 pIC50 meets or surpasses 6.
satisfied

###

# assayed_target: Ba/F3-Flt3-transfected cells (Homo sapiens, UniProt P36888, cells depend on it, form not given)
# test_details: Ba/F3-Flt3 (minus IL3) cellular proliferation assay, Alamar Blue
# Assay type: cell-based
# condition_parameters: minus IL3
# Method: Ba/F3-Flt3 (Minus IL3 or Plus IL3) (Cellular Proliferation Assay) Cells were put in an incubator at 37° C. and 5% CO2. After 24 hours, 10 μl of Alamar Blue solution (0.5 mM K3Fe(CN)6, 0.5 mM KaFe(CN)6, 0.15 mM Resazurin and 100 mM Phosphate Buffer) was added to the wells, incubated for 4 hours at 37° C. and 5% CO2 before RFU's (Relative Fluorescence Units) (ex. 540 nm., em. 590 nm.) were measured in a flurorescence plate reader. […]
observable: BAF3-FLT3 (MIN IL3) 96 well pIC50

Memo: COc1cc(OC)cc(N(CC2CC2)c2ccc3ncc(Nc4nncs4)nc3c2)c1 , reported BAF3-FLT3 (MIN IL3) 96 well pIC50: ~5

Form field BAF3-FLT3 (MIN IL3) 96 well pIC50, entry COc1cc(OC)cc(N(CC2CC2)c2ccc3ncc(-c4cnco4)nc3c2)c1 : <5

Please fill in: BAF3-FLT3 (MIN IL3) 96 well pIC50 reported for COc1cc(OC)cc(N(CC2CC2)c2ccc3ncc(-c4cnn(C)n4)nc3c2)c1 = <5

The reported BAF3-FLT3 (MIN IL3) 96 well pIC50 of the compound COc1cc(OC)cc(N(CC2CC2)c2ccc3ncc(-c4cn(C)cn4)nc3c2)c1 was <5

###

# assayed_target: FGFR3 (h) (Homo sapiens)
# Sequence (P22607 23-806): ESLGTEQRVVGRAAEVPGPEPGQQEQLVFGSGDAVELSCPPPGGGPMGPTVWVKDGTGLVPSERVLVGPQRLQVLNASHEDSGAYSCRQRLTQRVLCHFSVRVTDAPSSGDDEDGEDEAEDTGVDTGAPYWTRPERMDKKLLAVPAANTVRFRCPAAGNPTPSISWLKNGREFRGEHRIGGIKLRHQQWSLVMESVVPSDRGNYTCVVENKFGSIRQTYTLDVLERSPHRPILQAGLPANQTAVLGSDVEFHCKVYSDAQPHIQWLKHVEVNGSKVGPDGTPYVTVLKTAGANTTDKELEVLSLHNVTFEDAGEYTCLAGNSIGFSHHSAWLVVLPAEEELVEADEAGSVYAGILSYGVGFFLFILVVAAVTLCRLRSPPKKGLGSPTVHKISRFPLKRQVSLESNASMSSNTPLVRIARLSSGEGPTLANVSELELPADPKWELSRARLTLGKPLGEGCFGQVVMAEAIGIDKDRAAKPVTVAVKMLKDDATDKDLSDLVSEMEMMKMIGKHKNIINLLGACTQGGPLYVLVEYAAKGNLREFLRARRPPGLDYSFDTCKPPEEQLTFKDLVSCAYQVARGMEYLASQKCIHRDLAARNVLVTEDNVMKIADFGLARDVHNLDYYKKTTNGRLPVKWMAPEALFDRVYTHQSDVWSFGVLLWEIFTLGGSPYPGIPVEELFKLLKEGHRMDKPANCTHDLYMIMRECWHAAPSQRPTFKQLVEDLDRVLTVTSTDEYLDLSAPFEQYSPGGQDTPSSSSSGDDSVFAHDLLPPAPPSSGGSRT
# test_details: FGFR3 (enzymatic assay), TR-FRET
# Format: biochemical
# condition_parameters: read-out: FGFR 3 pIC50 (converted)
observable: IC50 (nM)
The reply should contain only the number, in nM.

GET /value?item= CNc1ccc(-c2cnc3ccc(N(CCCO)c4cc(OC)cc(OC)c4)cc3n2)cn1 [Compound 116] &field=IC50 returns 3.24

COc1cc(OC)cc(N(CCCNCC(F)(F)F)c2ccc3ncc(C(=O)NCCN4CCOCC4)nc3c2)c1 [Compound 158] has a reported IC50 of 537

Input CNC(=O)c1cc(-c2cnc3ccc(N(CCCNCC(F)(F)F)c4cc(OC)cc(OC)c4)cc3n2)ccn1 [Compound 122] . Output IC50: 37.2

The molecule identified as COc1cc(OC)cc(N(CCCO)c2ccc3ncc(-c4ccc(C)nc4)nc3c2)c1 [Compound 115] registered its IC50 at 4.79

So for COc1cc(OC)cc(N(CC2CC2)c2ccc3ncc(C(=O)NCCN4CCOCC4)nc3c2)c1 [Compound 96] , the logged IC50 turned out to be 550

For reference, reported IC50 for COc1cc(OC)cc(N(CCCNCC(F)(F)F)c2ccc3ncc(-c4ccnc(Cl)c4)nc3c2)c1 [Compound 145] stands at 97.7

For this molecule ( COc1cc(OC)cc(N(CCN)c2ccc3ncc(-c4ccn(C)c4)nc3c2)c1 [Compound 79] ), measured IC50 is 1.86

Value of measured IC50 for the entry COCCCN(c1cc(OC)cc(OC)c1)c1ccc2ncc(-c3ccn(C)c3)nc2c1 [Compound 3] : 10

Data point: COc1cc(OC)cc(N(CCNC(C)C)c2ccc3ncc(C(=O)N4CCCCC4)nc3c2)c1 [Compound 180] ; IC50 = 263

Sample COc1cc(OC)cc(N(CCNC(C)C)c2ccc3ncc(-n4cnc(COC(C)=O)c4)nc3c2)c1 [Compound 167] ; IC50 observed: 11

// recorded IC50 for COc1cc(OC)cc(N(CCCO)c2ccc3ncc(-c4ccc(N5CCNCC5)nc4)nc3c2)c1 [Compound 48] : 3.31

Entry COc1cc(OC)cc(N(CCCO)c2ccc3ncc(-c4ccc(F)nc4)nc3c2)c1 [Compound 117] — recorded IC50 = 11.7

Form field IC50, entry COc1cc(OC)cc(N(CCNC(C)C)c2ccc3ncc(-c4ccn[nH]4)nc3c2)c1 [Compound 189] : 6.17

The value of IC50 measured for the molecule COc1cc(OC)cc(N(CCCNCCCO)c2ccc3ncc(-c4ccnc(C(=O)NCCCCN)c4)nc3c2)c1 [Compound 132] turned out to be 18.6

// IC50 lookup, molecule = COc1cc(OC)cc(N(CCO)c2ccc3ncc(-c4ccc(N5CCOCC5)nc4)nc3c2)c1 [Compound 19] , result: 1.95

Sample COc1cc(OC)cc(N(CC2CC2)c2ccc3ncc(N4CCN(C)CC4)nc3c2)c1 [Compound 64] ; IC50 observed: 191

###

# assayed_target: FGFR2 (h) (Homo sapiens, UniProt P21802)
# Sequence (P21802 22-821): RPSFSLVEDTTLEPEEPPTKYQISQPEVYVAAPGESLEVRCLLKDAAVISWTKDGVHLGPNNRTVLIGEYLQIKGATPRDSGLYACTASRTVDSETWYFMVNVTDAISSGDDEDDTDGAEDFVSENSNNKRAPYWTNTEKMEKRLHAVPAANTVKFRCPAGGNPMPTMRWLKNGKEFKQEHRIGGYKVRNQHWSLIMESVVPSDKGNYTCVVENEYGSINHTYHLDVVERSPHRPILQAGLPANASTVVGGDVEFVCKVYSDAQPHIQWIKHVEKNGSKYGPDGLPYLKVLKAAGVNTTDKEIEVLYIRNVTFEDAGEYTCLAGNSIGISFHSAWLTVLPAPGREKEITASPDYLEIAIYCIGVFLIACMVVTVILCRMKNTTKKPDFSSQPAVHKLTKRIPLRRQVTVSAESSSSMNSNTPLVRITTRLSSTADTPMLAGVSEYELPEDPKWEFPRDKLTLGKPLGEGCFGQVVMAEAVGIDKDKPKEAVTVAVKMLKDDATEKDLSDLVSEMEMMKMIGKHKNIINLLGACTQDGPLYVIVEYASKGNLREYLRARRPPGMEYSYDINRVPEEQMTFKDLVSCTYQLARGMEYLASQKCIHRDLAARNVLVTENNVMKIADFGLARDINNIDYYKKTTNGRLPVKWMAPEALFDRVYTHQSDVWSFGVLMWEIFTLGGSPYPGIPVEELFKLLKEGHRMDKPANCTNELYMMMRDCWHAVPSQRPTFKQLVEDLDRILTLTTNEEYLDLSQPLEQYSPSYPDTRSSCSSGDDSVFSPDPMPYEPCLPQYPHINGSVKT
# test_details: FGFR2 (enzymatic assay), TR-FRET
# Assay type: biochemical
# condition_parameters: read-out: FGFR 2 pIC50 (converted)
observable: IC50 (nM)
Provide only the numeric value, understood in nM.

// IC50 (FGFR2 (h) (Homo sapiens, UniProt P21802)) for COc1cc(OC)cc(N(CCNC(C)C)c2ccc3ncc(C(=O)NCCCN4CCN(C)CC4)nc3c2)c1 = 66.1

Observed IC50 on FGFR2 (h) (Homo sapiens, UniProt P21802), entry COc1cc(OC)cc(N(CCO)c2ccc3ncc(C(=O)Nc4cnn(C)c4)nc3c2)c1 , equals 155

Form field, IC50 with FGFR2 (h) (Homo sapiens, UniProt P21802), item COc1cc(OC)cc(N(CCO)c2ccc3ncc(-c4ccnc(C(=O)NCCCCCO)c4)nc3c2)c1 : 39.8

Reported FGFR2 (h) (Homo sapiens, UniProt P21802) IC50 for item CNC(=O)OCCN(c1cc(OC)cc(OC)c1)c1ccc2ncc(-c3ccc(NC(=O)OC(C)(C)C)nc3)nc2c1 was 912

src = patent US10052320B2
